# experimental system: Aβ (1-40) peptide (Homo sapiens, UniProt P05067)
# Construct: 10 μL 0.5 mg/mL Aβ (1-40) peptide in 20% HFIP
# measurement protocol: BAPA (Beta-Amyloid Peptide Aggregation, pH 6.0, filtration)
# Type: biochemical
# test context: Aβ (1-40) 33 μM, pH 6.0, 2 to 4 hours at room temperature; replicate values; letter = synthetic lot
Let's look at some molecules and their measured IC50.

# molecule, measurement units, cmp, IC50
data = [
    ("O=C(O)c1cc([N+](=O)[O-])ccc1Nc1ccc(CCc2ccc(Cl)cc2Cl)cc1 [Example 77]", "µM", ">", 60),
    ("O=C(O)c1ccccc1Nc1ccc(CCc2ccc(Cl)cc2Cl)cc1 [Example 130]", "µM", "=", 238),
    ("O=C(O)c1cccc(Nc2ccc(CCc3ccc(Cl)c(Cl)c3)cc2)c1 [Example 131]", "µM", ">", 60),
    ("O=C(O)c1cc([N+](=O)[O-])ccc1Nc1ccc(CCc2cccc(C(F)(F)F)c2Cl)cc1 [Example 63]", "µM", "=", 45),
]

----------
Let's look at some molecules and their measured IC50.
# experimental system: Aβ (1-40) peptide (Homo sapiens)
# Construct: 10 μL 0.5 mg/mL Aβ (1-40) peptide in 20% HFIP
# measurement protocol: BAPA (Beta-Amyloid Peptide Aggregation, pH 6.0, filtration)
# Assay type: biochemical
# test context: Aβ (1-40) 33 μM, pH 6.0, 2 to 4 hours at room temperature; replicate values; letter = synthetic lot
# Procedure: Each 96-well plate can therefore accommodate 11 samples+1 Congo Red control (0.039-5 μM final in 2-fold steps). • 4) Seal the plate with aluminum film and incubate for 10 minutes on ice. • 5) Raise the temperature to 37° C. and incubate for 3 to 5 hours (depends on the lot of the peptide). • 6) Remove the aluminum film and add 250 μL/well of 5 μM thioflavin T (ThT) [T-3516, Sigma-Aldrich] in 50 mM glycine-NaOH, pH 8.5. […]
Counter-ions that a name gives are not always drawn.

# molecule, cmp, IC50 (µM)
records = [
    ("O=C(NS(=O)(=O)C(F)(F)F)c1ccccc1Nc1ccc(CCCc2ccc(Cl)c(Cl)c2)cc1", ">", 50),
    ("O=C(O)c1ccccc1Nc1ccc(CCc2ccc(Cl)c(Cl)c2)cc1 [Example 117, monosodium]", ">", 100),
    ("O=C(O)c1cc([N+](=O)[O-])ccc1Nc1ccc(CCc2ccccc2Cl)cc1", ">", 60),
    ("COc1cc(Nc2ccc(CCc3ccc(Cl)c(Cl)c3)cc2)c(C(=O)O)cc1[N+](=O)[O-]", ">", 60),
    ("O=C(O)c1ccccc1Nc1ccc(CCc2cccc(N(Cc3ccccc3)Cc3ccccc3)c2)cc1", "=", 86),
    ("O=C(O)c1c(Nc2ccc(CCc3ccc(Cl)c(Cl)c3)cc2)cccc1C(F)(F)F", "=", 8),
    ("O=C(NS(=O)(=O)c1ccccc1)c1ccccc1Nc1ccc(CCCc2ccc(Cl)c(Cl)c2)cc1", "=", 55),
    ("O=C(O)c1ccccc1Nc1ccc(CCCc2ccc(Cl)c(Cl)c2)cc1", "=", 75),
    ("O=C(O)c1ccc(Nc2ccc(CCc3ccc(Cl)c(Cl)c3)cc2)c(C(=O)O)c1", "=", 114),
    ("CCN(CC)c1ccc(CCCc2ccc(N(CC)c3ccccc3C(=O)O)cc2)cc1", "=", 38),
    ("CCCCN1CCCc2cc(C=C3SC(=S)N(CC(=O)O)C3=O)ccc21", "=", 101),
    ("CC(=O)Nc1cccc(CCc2ccc(Nc3ccccc3C(=O)O)cc2)c1", "=", 149),
    ("CC(=O)Nc1ccc(CCCc2ccc(Nc3ccccc3C(=O)O)cc2)cc1", "=", 21),
    ("CCN(CC)c1ccc(CCc2ccc(Nc3ccccc3C(=O)O)cc2)cc1 [Example 26, monohydrochloride monohydrate]", "=", 57),
    ("O=C(O)c1cccc(C(F)(F)F)c1Nc1ccc(CCc2ccc(Cl)c(Cl)c2)cc1", ">", 60),
    ("O=C(O)c1ccccc1Nc1ccc(CCCCCc2ccc(Cl)c(Cl)c2)cc1", ">", 60),
    ("Cc1ccc(CCc2ccc(Nc3ccc([N+](=O)[O-])cc3C(=O)O)cc2)cc1C [Example 61]", "=", 13),
    ("Nc1cccc(CCc2ccc(Nc3ccccc3C(=O)O)cc2)c1", ">", 10),
    ("CN(C)c1cccc(CCCc2ccc(Nc3ccccc3C(=O)O)cc2)c1", "=", 27),
    ("CCCN(CCC)c1ccc(CCc2ccc(Nc3ccccc3C(=O)O)cc2)cc1.Cl [Example 25, monohydrochloride]", "=", 47),
    ("O=C(O)c1cc([N+](=O)[O-])ccc1Nc1ccc(CCc2cccc(Cl)c2)cc1", ">", 60),
    ("O=C(O)c1ccccc1Nc1ccc(CCc2ccc(Oc3ccccc3)cc2)cc1", ">", 60),
    ("O=C(O)c1cc([N+](=O)[O-])ccc1Nc1ccc(CCc2ccc(Cl)cc2)cc1", ">", 60),
    ("Nc1ccc(CCCc2ccc(Nc3ccccc3C(=O)O)cc2)cc1", "=", 24),
    ("CCN(CC)c1cccc(CCCc2ccc(Nc3ccccc3C(=O)O)cc2)c1", "=", 96),
    ("O=C(O)c1ccccc1Nc1cccc(CCc2ccc(Cl)cc2)c1", ">", 60),
]

----------
# experimental system: Aβ (1-42) (Homo sapiens)
# Construct: Required Aβ (1-42) (California Peptide) was dried from its hexafluoroisopropanol (HFIP) stock solution; purchased California Peptide
# measurement protocol: BATYM assay (Aβ (1-42) aggregation, Thioflavin T fluorescence)
# Format: biochemical
# test context: Aβ 1-42 final concentration 100 μM, 37° C., 1 day, letter = synthetic lot
Let's look at some compounds and their measured IC50.
property measured: IC50

# compound, property measured, recorded measurement
records = [
    ("CCN(CC)Cc1ccc(CCCc2ccc(Nc3ccccc3C(=O)O)cc2)cc1", "IC50", "> 100 µM"),
    ("CCN(CC)c1cccc(CCc2ccc(Nc3ccccc3C(=O)O)cc2)c1.Cl [Example 41, monohydrochloride]", "IC50", "49.7 µM"),
    ("COc1cc(Nc2ccc(CCc3ccc(Cl)c(Cl)c3)cc2)c(C(=O)O)cc1[N+](=O)[O-]", "IC50", "11.7 µM"),
    ("O=C(O)c1c(Nc2ccc(CCc3ccc(Cl)c(Cl)c3)cc2)cccc1C(F)(F)F", "IC50", "> 100 µM"),
    ("O=C(O)c1cccc(Nc2ccc(CCc3ccc(Cl)c(Cl)c3)cc2)c1", "IC50", "93.5 µM"),
    ("CCCN(CCC)c1cccc(CCCc2ccc(Nc3ccccc3C(=O)O)cc2)c1", "IC50", "19.8 µM"),
    ("O=C(O)c1ccccc1Nc1ccc(CCc2ccc(-c3ccccc3)cc2)cc1", "IC50", "> 100 µM"),
    ("O=C(O)c1ccccc1Nc1ccc(CCc2ccc(Cl)c(C(F)(F)F)c2)cc1", "IC50", "64.5 µM"),
]

----------
Let's look at some compounds and their measured melting point.

# compound, melting point
rows = [
    ("O=C(O)c1ccccc1Nc1ccc(CCc2ccc(N3CC[C@@H]4CCCC[C@H]4C3)cc2)cc1 [Example 82]", "203 to 206 °C"),
    ("COc1cc(Nc2ccc(CCCc3ccc(Cl)c(Cl)c3)cc2)c([N+](=O)[O-])cc1C(=O)O [Example 138]", "74 to 78 °C"),
    ("O=C(O)c1cc([N+](=O)[O-])ccc1Nc1ccc(CCc2ccccc2)cc1 [Example 65]", "198 to 202 °C"),
    ("CN(C)c1ccc(Nc2ccc(CCc3ccc(Cl)c(Cl)c3)cc2)c(C(=O)O)c1 [Example 80]", "75 to 80 °C"),
]

----------
# experimental system: Aβ (1-42) (Homo sapiens, UniProt P05067)
# Construct: Required Aβ (1-42) (California Peptide) was dried from its hexafluoroisopropanol (HFIP) stock solution; purchased California Peptide
# Sequence (P05067 672-713 limits assumed): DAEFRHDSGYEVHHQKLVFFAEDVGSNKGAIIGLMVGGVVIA
# measurement protocol: BATYM assay (Aβ (1-42) aggregation, Thioflavin T fluorescence)
# Type: biochemical
# test context: Aβ 1-42 final concentration 100 μM, 37° C., 1 day, letter = synthetic lot
Structures can show the parent of a compound that is named as a salt.
Let's look at some compounds and their measured IC50.
property measured: IC50 (µM)

# compound, measurement units, cmp, recorded measurement
rows = [
    ("O=C(O)c1ccccc1Nc1ccc(CCc2ccccc2O)cc1", "µM", ">", 100),
    ("CCN(CC)c1ccc(CCc2ccc(Nc3ccccc3C(=O)O)cc2)cc1 [Example 26, monohydrochloride monohydrate]", "µM", ">", 100),
    ("CCCN(CCC)c1ccc(Nc2ccc(CCc3ccc(Cl)c(Cl)c3)cc2)c(C(=O)O)c1", "µM", ">", 100),
    ("Cl.O=C(O)c1ccccc1Nc1ccc(CCc2cccc(N3CCCCC3)c2)cc1 [Example 42, monohydrochloride]", "µM", "=", 55.6),
    ("CCCCN1CCCc2cc(C=C3SC(=S)N(CC(=O)O)C3=O)ccc21", "µM", "=", 5.1),
    ("O=C(O)c1ccc(C(F)(F)F)cc1Nc1ccc(CCc2ccc(Cl)c(Cl)c2)cc1", "µM", "=", 56.8),
    ("CC(=O)Nc1cccc(CCCc2ccc(Nc3ccccc3C(=O)O)cc2)c1", "µM", ">", 100),
    ("O=C(O)c1ccccc1Nc1ccc(CCc2ccc(Cl)cc2Cl)cc1", "µM", "=", 47.5),
]
